Hello, the source for this data is patent US20250051347A1, in case you need it.

target: androgen receptor (AR) splicing variant AR-v7 (Homo sapiens); construct: The degradation activity of compounds on AR-v7 in 22RV1 cells; host or cells: 22RV1 cells; test: Degradation activity on androgen receptor splicing variant AR-v7 in 22RV1 cells (ELISA); type: cell-based; settings: AR-v7 degradation in 22RV1 cells, 48 h, numeric values
Sequence (P10275 1-644 isoform P10275-3): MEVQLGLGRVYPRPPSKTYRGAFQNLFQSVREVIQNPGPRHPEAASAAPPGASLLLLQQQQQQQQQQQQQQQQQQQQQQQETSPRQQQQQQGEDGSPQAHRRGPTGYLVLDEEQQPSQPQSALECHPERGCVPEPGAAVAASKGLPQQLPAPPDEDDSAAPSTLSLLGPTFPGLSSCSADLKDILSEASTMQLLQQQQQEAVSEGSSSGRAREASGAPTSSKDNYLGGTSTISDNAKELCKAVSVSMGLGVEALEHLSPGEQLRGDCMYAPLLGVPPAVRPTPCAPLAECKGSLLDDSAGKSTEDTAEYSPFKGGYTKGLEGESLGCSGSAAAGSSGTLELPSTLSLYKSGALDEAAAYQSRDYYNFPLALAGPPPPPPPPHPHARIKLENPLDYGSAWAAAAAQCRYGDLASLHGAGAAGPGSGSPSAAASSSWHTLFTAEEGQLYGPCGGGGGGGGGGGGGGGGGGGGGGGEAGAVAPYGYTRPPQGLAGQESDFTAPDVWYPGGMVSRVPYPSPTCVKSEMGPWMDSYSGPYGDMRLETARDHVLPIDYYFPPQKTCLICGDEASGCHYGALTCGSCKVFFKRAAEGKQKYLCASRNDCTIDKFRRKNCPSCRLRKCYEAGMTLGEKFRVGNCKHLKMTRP
// reported DC50 for each item listed

// worked examples, DC50 included
* CC(=O)c1nccc(COc2ccc(C(C)(C)c3ccc(OCC4CCN(c5ccc6c(c5)C(=O)N(C5CCC(=O)NC5=O)C6=O)CC4)cc3)cc2)n1 (stereo not drawn) [Example 108] | > 10 µM
* CC(C)(c1ccc(OCCCCCCCCOCCCCNc2ccc3c(c2)C(=O)N(C2CCC(=O)NC2=O)C3=O)cc1)c1ccc(OCc2ccnc(Nc3ncco3)n2)cc1 (stereo not drawn) [Example 226] | > 10 µM
* CC(=O)c1nccc(COc2ccc(C(C)(C)c3ccc(OCC4CCCN(c5cccc6c5C(=O)N(C5CCC(=O)NC5=O)C6=O)C4)cc3)cc2)n1 (stereo not drawn) [Example 303] | > 10 µM
* CC(C)(c1ccc(OCc2ccnc(NS(C)(=O)=O)n2)cc1)c1ccc(OC[C@H]2CC[C@H](CN3CCC(CN4CCN(c5ccc6c(c5)C(=O)N(C5CCC(=O)NC5=O)C6=O)CC4)CC3)CC2)cc1 (stereo partly drawn) [Example 43] | > 10 µM
* CC(C)(c1ccc(OCCCCCCCCOCCCCNc2ccc3c(c2)C(=O)N(C2CCC(=O)NC2=O)C3=O)cc1)c1ccc(OCc2ccnc(N)n2)cc1 (stereo not drawn) [Example 28] | 5.27 µM

Next up:
Exercise: Reported DC50 for androgen receptor (AR) splicing variant AR-v7 (Homo sapiens), given CC(C)(c1ccc(OCCCCCCCCOCCCCNc2cccc3c2C(=O)N(C2CCC(=O)NC2=O)C3=O)cc1)c1ccc(OCc2ccnc(NS(C)(=O)=O)n2)cc1 (stereo not drawn) [Example 21] ?
Solution: 5.77 µM
